biological target: glucagon receptor (GCGR) overexpressed CHO-K1 cells or human primary hepatocytes (Homo sapiens); construct: expressed in transfected cells; host or cells: GCGR overexpressed CHO-K1 cells or human primary hepatocytes (endogenous receptor); test: Glucagon cAMP inhibition assay (Cisbio cAMP Dynamic 2 HTRF); format: cell-based; conditions: inhibition of glucagon (EC50 concentration) induced cAMP production
Values of IC50 cAMP strictly less than 200 nM map to Yes, and values of at least 200 nM map to No.

CC(C)[C@@H](COc1ccc(-c2ccc(C(F)(F)F)nn2)cc1)Nc1ccc(C(=O)NCCC(=O)O)cc1 :: No
CCCC[C@@H](COc1ccc(-c2ccc(C(F)(F)F)cc2F)c(Cl)c1)Nc1ccc(C(=O)NCCC(=O)O)cc1 :: Yes
CC(C)[C@@H](COc1ccc(-c2cc3ccccc3o2)c(F)c1)Nc1ccc(C(=O)NCCS(=O)(=O)O)cc1 :: No
CCCC[C@@H](COc1ccc(-c2nnc(-c3ccccc3)o2)cc1)Nc1ccc(C(=O)NCCC(=O)O)cc1 :: No
CC(C)[C@@H](COc1ccc(-c2ccc(C(C)(C)C)cc2)nn1)Nc1ccc(C(=O)NCCC(=O)O)cc1 :: No

Does the reported IC50 cAMP of `CC(C)C[C@@H](COc1ccc(-c2cc3ccccc3o2)c(F)c1)Nc1ccc(C(=O)NCCC(=O)O)cc1` stay below 200 nM?
No

* * *

target: glucagon receptor (GCGR) (Homo sapiens, UniProt P47871); construct: expressed in transfected cells; host or cells: CHO-K1 cells overexpressing GCGR (membrane fractions); assay: I125-glucagon binding assay (competition, GCGR membrane fractions); details: competition with I125-glucagon 0.0625 nM, membrane fractions of GCGR overexpressed CHO-K1 cells
Sequence (P47871 26-477): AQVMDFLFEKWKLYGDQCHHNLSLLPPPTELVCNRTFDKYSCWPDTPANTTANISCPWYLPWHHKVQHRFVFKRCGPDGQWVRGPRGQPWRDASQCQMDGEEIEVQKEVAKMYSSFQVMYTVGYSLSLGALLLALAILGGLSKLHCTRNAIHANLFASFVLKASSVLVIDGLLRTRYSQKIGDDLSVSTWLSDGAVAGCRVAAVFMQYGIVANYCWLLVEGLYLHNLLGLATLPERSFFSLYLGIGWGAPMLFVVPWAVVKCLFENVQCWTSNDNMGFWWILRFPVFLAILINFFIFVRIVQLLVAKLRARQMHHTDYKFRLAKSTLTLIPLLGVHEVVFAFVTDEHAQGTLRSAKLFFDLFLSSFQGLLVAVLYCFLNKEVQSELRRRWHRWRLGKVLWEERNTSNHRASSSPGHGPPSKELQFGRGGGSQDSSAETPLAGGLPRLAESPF
experimental-readout: log10(IC50) (log10 of the value in nM)
Heads up: the numbers are on a log10 scale; they represent IC50 in nM.

Solved cases (8 shown):
CC(C)C[C@@H](COc1cnc(-c2ccc(C(F)(F)F)cc2Cl)nc1)Nc1ccc(C(=O)NCCC(=O)O)cc1 :: 2.70
CCCC[C@@H](COc1ccc(-c2ccc(C(F)(F)F)cc2)cc1)Nc1ccc(C(=O)NCc2nnn[nH]2)cc1 :: 1.72
CC(C)C[C@@H](COc1cc(F)c(-c2cc3ccccc3o2)c(F)c1)Nc1ccc(C(=O)NCCC(=O)O)cc1 :: 2.16
CC[C@H](C)[C@@H](COc1ccc(-c2ccc(Cl)cc2Cl)cc1)Nc1ccc(C(=O)NC[C@@H](O)C(=O)O)cc1 :: 2.05
CC[C@H](C)[C@@H](COc1ccc(-c2ccc(C(F)(F)F)cc2Cl)c(F)c1)Nc1ccc(C(=O)NCCC(=O)O)cc1 :: 2.44
CC(C)[C@@H](COc1ccc(-c2nc3ccccc3s2)c(F)c1)Nc1ccc(C(=O)NCCC(=O)O)cn1 :: 2.78
CC[C@H](C)[C@@H](COc1cc(C)c(-c2ccc(Cl)cc2Cl)c(C)c1)Nc1ccc(C(=O)NCCC(=O)O)cc1 :: 1.78
CC(C)[C@@H](COc1ccc(-c2cc3ccccc3o2)cn1)Nc1ccc(C(=O)NCCC(=O)O)cn1 :: 2.72

Response field log10(IC50) (glucagon receptor (GCGR) (Homo sapiens, UniProt P47871)) for item `CC(C)[C@@H](COc1ccc(-c2nc3ccccc3o2)cc1)Nc1ccc(C(=O)NCCC(=O)O)cc1` : 2.14

Response field log10(IC50) (glucagon receptor (GCGR) (Homo sapiens, UniProt P47871)) for item `CC(C)C[C@@H](COc1cc(F)c(-c2cc(Cl)cc(Cl)c2)c(F)c1)Nc1ccc(C(=O)NCCC(=O)O)cc1` : 2.42

Response field log10(IC50) (glucagon receptor (GCGR) (Homo sapiens, UniProt P47871)) for item `CC(C)[C@@H](COc1ccc(-c2ccc(Cl)cc2Cl)cn1)Nc1ccc(C(=O)NCCC(=O)O)cn1` : 2.33

* * *

target: glucagon receptor (GCGR) overexpressed CHO-K1 cells or human primary hepatocytes (Homo sapiens, UniProt P47871); construct: expressed in transfected cells; host or cells: GCGR overexpressed CHO-K1 cells or human primary hepatocytes (endogenous receptor); assay: Glucagon cAMP inhibition assay (Cisbio cAMP Dynamic 2 HTRF); assay type: cell-based
experimental-readout: IC50 cAMP

CC(C)(C)c1nnc(-c2ccc(OC[C@@H](Nc3ccc(C(=O)NCCC(=O)O)cc3)c3ccc(-c4ccc(C(F)(F)F)cc4F)cc3)nc2)o1 [Compound 15-32] :: 809 nM

Form: molecule = O=C(O)CCNC(=O)c1ccc(N[C@H](COc2ccc(-c3cc4ccccc4o3)cn2)c2ccccc2)cc1 [Compound 15-5] ; IC50 cAMP = 2067 nM

Form: molecule = CC(C)[C@@H](COc1ccc(-c2ccc(C(F)(F)F)cc2)cn1)Nc1ccc(C(=O)NCc2nnn[nH]2)cc1 [Compound 15-2] ; IC50 cAMP = 1543 nM

Form: molecule = CC(C)[C@@H](COc1nnc(-c2ccc(C(F)(F)F)cc2F)o1)Nc1ccc(C(=O)NCCC(=O)O)cc1 [Compound 22-17] ; IC50 cAMP = >30000 nM

Form: molecule = C[C@@H](Cc1ccc(-c2ccc(Cl)cc2Cl)cc1)Nc1ccc(C(=O)NCCC(=O)O)cc1 [Compound 19-2] ; IC50 cAMP = 5186 nM

Form: molecule = CCOC(=O)CCNC(=O)c1ccc(N[C@@H](Cc2ccc(F)cc2)C(=O)Nc2ccc(-c3cc4ccccc4o3)cc2)cc1 [Compound 23-9] ; IC50 cAMP = 2600 nM

Form: molecule = CCOC(=O)CCNC(=O)c1ccc(N[C@H](Cc2ccc(-c3ccc(Cl)cc3Cl)cc2)C(=O)Nc2ccc(C(F)(F)F)cc2)cc1 [Compound 24-17] ; IC50 cAMP = 167.1 nM

Form: molecule = CC(C)C[C@@H](COc1ccc(-c2ccc(C(F)(F)F)cc2Cl)cn1)Nc1ccc(C(=O)NCCC(=O)O)cc1 [Compound 15-10] ; IC50 cAMP = 198.4 nM

Form: molecule = CC(C)C[C@@H](Nc1ccc(C(=O)NCCC(=O)O)cc1)C(=O)Nc1ccc(-c2cc3ccccc3o2)cc1 [Compound 24-2] ; IC50 cAMP = 598.6 nM

Form: molecule = CC[C@H](C)[C@@H](COc1ccc(-c2cc3ccccc3o2)cn1)Nc1ccc(C(=O)NCCC(=O)O)cc1 [Compound 15-15] ; IC50 cAMP = 32.73 nM

Form: molecule = CCCCC[C@H](Cc1ccc(-c2cc3ccccc3o2)cc1)Nc1ccc(C(=O)NCCC(=O)O)cc1 [Compound 19-6] ; IC50 cAMP = 632 nM

* * *

molecular target: glucagon receptor (GCGR) overexpressed CHO-K1 cells or human primary hepatocytes (Homo sapiens, UniProt P47871); construct: expressed in transfected cells; host or cells: GCGR overexpressed CHO-K1 cells or human primary hepatocytes (endogenous receptor); assay: Glucagon cAMP inhibition assay (Cisbio cAMP Dynamic 2 HTRF); type: cell-based
IC50 cAMP overview

Solved cases (2 shown):
CC(C)[C@@H](COc1ccc(-c2ccc(C(F)(F)F)cc2)cn1)Nc1ccc(C(=O)NC[C@@H](O)C(=O)O)cc1 [Compound 15-8] :: >30 µM
CC(C)C[C@@H](COc1ccc(-c2ccc(C(F)(F)F)cc2Cl)cn1)Nc1ccc(C(=O)NCCS(=O)(=O)O)cc1 [Compound 15-18] :: >30 µM

Please examine the following record next.
Form: compound = CCCC[C@@H](COc1nnc(-c2ccc(C(C)(C)C)cc2)o1)Nc1ccc(C(=O)NCCC(=O)O)cc1 [Compound 22-18] ; IC50 cAMP = >30 µM

* * *

biological target: glucagon receptor (GCGR) (Homo sapiens); construct: expressed in transfected cells; host or cells: CHO-K1 cells overexpressing GCGR (membrane fractions); assay: I125-glucagon binding assay (competition, GCGR membrane fractions)
pIC50: −log10 of the molar value.
experimental-readout: pIC50

Solved cases (3 shown):
CCOC(=O)CCNC(=O)c1ccc(N[C@H](COc2ccc(-c3nnc(C(C)(C)C)o3)cn2)c2ccc(-c3ccc(C(F)(F)F)cc3F)cc2)cc1 :: < 4.52
CC[C@H](C)[C@@H](COc1nnc(-c2ccc(C(F)(F)F)cc2F)o1)Nc1ccc(C(=O)NCCC(=O)O)cc1 :: 7.21
CCCC[C@@H](COc1nnc(-c2cc3ccccc3o2)o1)Nc1ccc(C(=O)NCCC(=O)O)cc1 :: < 4.52

Please examine the following record next.
Form: compound = CCC(C)[C@@H](COc1nnc(-c2ccc(OC(F)(F)F)cc2)o1)Nc1ccc(C(=O)NCCC(=O)O)cc1 (stereo partly shown) ; pIC50 = < 4.52

* * *

IC50 overview
target: glucagon receptor (GCGR) (Homo sapiens); construct: expressed in transfected cells; host or cells: CHO-K1 cells overexpressing GCGR (membrane fractions); experiment: I125-glucagon binding assay (competition, GCGR membrane fractions)

Solved cases (2 shown):
CCOC(=O)CCNC(=O)c1ccc(N[C@H](COc2ccc(-c3nnc(C(C)(C)C)o3)cn2)c2ccc(-c3ccc(Cl)cc3Cl)cc2)cc1 [Compound 15-33] :: > 30 µM
CC(C)[C@@H](COc1nnc(-c2ccc(Cl)cc2Cl)o1)Nc1ccc(C(=O)NCCC(=O)O)cc1 [Compound 22-14] :: > 30 µM

Form: compound = CC[C@H](C)[C@@H](COc1ccc(-c2ccc(C(F)(F)F)cc2F)cn1)Nc1ccc(C(=O)NCCC(=O)O)cc1 [Compound 15-14] ; IC50 = 0.379 µM

Form: compound = Cc1c(-c2nnc([C@H](Cc3ccc(-c4ccc(C(F)(F)F)cc4)cc3)Nc3ccc(C(=O)NCCS(=O)(=O)O)cc3)o2)oc2ccccc12 [Compound 20-7] ; IC50 = > 30 µM
